B1: library; a variant is named by its letters at N, in order (parent)
chain: GCUGUCACCGGUGCUUGGUACGUUAUAUUCAGCCGGUCUGAUGAGUCUNNNNNNAGACGAAACAGC

- Variants of: B1
- assayExplanation: normalized RNA/DNA level without ligand (relative to sTRSVctl = 100) (log10 (% of sTRSVctl)); HEK293T overexpressing SLC46A1; higher = less ribozyme self-cleavage, higher mRNA level
- assayConditions: without (6R,S)-folinic acid; ligand present: no
measurementName: normalized RNA/DNA level without ligand (log10)
Reply: number alone, nothing else.

Record request: normalized RNA/DNA level without ligand (log10) value, item UCAGUC 2.08

Then this variant: ACGGUA 1.91

Note, next up: ACGGUC 2.09

One more variant: AAUGGU 1.94

Next variant up: AAUAAU 1.97

Consider next the variant GGAUCA in the same way. 2.02

Then AUGCUA ? 2.02

Try this variant next: ACUGGU 1.95

Please do the same for UUGGUU as well. 2.01

Request: ACCAUC 2.04

Further, for GUUCGC ? 2.07

Next variant: UGCCGG 1.92

Same thing, different variant: GCAUCU 2.05

Now the variant UCAGCA 2.03

Follow-up item: UCAUGU 1.94

Follow-up entry: ACAUAG 1.93

Then ACCCUU ? 2.02

Similarly, GAAGCA ? 1.97

Item: CAGGAU 1.94
